Data credit: ChEMBL document CHEMBL1201862

- Tested on: SR
- method.summary: NCI tumour cell line growth inhibition, 48 h
The source made the active and inactive calls. No stated cut-off is given here; in the data, active = GI50 up to about 1.1 µM and inactive = higher.
result.type: GI50

Some molecules with known GI50 results, for comparison:
[[record]]
molecule = "NC(=O)c1ccccc1NC(=O)C(=O)Nc1n[nH]c(N)n1"
test_value = "> 100 µM (inactive)"

[[record]]
molecule = "Cc1ccc(S(=O)(=O)NC2(C=O)CCCC3CCCCC32)cc1 (stereo unspecified)"
test_value = "> 100 µM (inactive)"

[[record]]
molecule = "N#Cc1ccc(/C=N/C23CC4CC(CC(C4)C2)C3)cc1"
test_value = "> 100 µM (inactive)"

[[record]]
molecule = "CCCc1[nH]c2ccccc2c1-c1c(CCC)[nH]c2ccccc12"
test_value = "19 µM (inactive)"

[[record]]
molecule = "CN(C)Cc1cc(C(=O)/C=C/c2ccc(F)cc2)cc(CN(C)C)c1O"
test_value = "20.6 µM (inactive)"

[[record]]
molecule = "COCCCNC(=O)C1=C(C)NC(C)=C(C(=O)NCCCOC)C1"
test_value = "> 100 µM (inactive)"


Quote GI50 reported for CCOC(=O)CCC(NC(=O)c1ccc(NCc2ccc3nc(-c4ccccc4)c(Cl)nc3c2)cc1)C(=O)OCC (stereo unspecified) please.
13.5 µM (inactive)

Quote GI50 reported for CC(=O)OC12C=CC(=O)N1c1ccccc1C(=O)O2 (stereo unspecified) please.
> 100 µM (inactive)

Quote GI50 reported for COC(=O)/C=C1/OC(c2ccccc2)=CC1=O please.
> 23.4 µM (inactive)

Quote GI50 reported for Cc1ccc(S(=O)(=O)N(c2ccccc2F)C2CCCCC2O)cc1 (stereo unspecified) please.
24.4 µM (inactive)

Quote GI50 reported for CCOC(=O)C1C2CCC1CC(=NNc1ccc([N+](=O)[O-])cc1[N+](=O)[O-])C2 (stereo unspecified) please.
18.6 µM (inactive)
